Experiment: in vivo
Format: in vivo
Conditions: male, Sprague-Dawley, rat, in vivo, po, 10 mg/kg, Cmax
RECORDED_METRIC: Cmax (ng/mL)

                                   compound  endpoint_result
0  CC(C)(C)NC(=O)[C@@H]1CN(Cc2cccnc2)CCN1C[C@@H](O)C[C@@H](Cc1ccccc1)C(=O)N[C@H]1c2ccccc2C[C@H]1O [MK-639]             1030

###

Assay: Pharmacokinetics of HIV protease inhibitors in rats, alone vs. in combination with ritonavir
Format: in vivo
Details: male, Sprague-Dawley, rat, plasma, po, 10 mg/kg, oral gavage 10 mg/kg, compound administered as a single agent, plasma, read-out: AUC (0-8 h)
In this section, each of the molecules is paired with its reported AUC(0-t).

MOLECULE	VALUE_UNITS	AUC(0-t)
Cc1c(O)cccc1C(=O)NC(CSc1ccccc1)C(O)CN1CC2CCCCC2CC1C(=O)NC(C)(C)C (centres unmarked)	ng·h/mL	1140
CC(C)[C@H](NC(=O)N(C)Cc1ccccn1)C(=O)N[C@@H](Cc1ccccc1)[C@H](O)[C@H](O)[C@H](Cc1ccccc1)NC(=O)[C@@H](NC(=O)N(C)Cc1ccccn1)C(C)C	ng·h/mL	25
